Molecular target: BRAF (V600E) (Homo sapiens, UniProt P15056, V600E)
Sequence (P15056 whole entry V600E): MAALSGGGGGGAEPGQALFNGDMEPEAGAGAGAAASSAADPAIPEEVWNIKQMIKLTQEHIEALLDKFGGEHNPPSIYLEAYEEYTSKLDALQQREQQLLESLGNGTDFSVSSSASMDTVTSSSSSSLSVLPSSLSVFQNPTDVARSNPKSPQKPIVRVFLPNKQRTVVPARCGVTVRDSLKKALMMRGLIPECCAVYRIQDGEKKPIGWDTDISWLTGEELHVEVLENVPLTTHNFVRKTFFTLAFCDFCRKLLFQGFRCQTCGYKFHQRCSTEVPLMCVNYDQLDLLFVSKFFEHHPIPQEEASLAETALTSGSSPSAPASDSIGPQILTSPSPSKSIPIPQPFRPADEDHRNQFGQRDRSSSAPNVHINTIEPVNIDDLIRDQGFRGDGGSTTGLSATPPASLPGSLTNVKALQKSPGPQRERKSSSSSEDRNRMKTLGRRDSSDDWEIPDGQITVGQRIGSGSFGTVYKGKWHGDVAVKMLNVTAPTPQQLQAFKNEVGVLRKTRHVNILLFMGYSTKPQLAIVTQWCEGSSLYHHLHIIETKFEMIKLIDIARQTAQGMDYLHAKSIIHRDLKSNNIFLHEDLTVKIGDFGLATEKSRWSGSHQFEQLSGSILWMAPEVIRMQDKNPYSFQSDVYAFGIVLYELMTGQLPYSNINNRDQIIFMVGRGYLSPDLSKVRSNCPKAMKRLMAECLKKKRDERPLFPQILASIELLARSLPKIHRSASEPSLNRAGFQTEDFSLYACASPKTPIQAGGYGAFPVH
Experiment: KD BRAF (V600E) (Table 1)
pKd: −log10 of the molar value.
PROPERTY: pKd

(a) CC(C)(C)OC(=O)NCCCn1cnc2ccc(Oc3c(F)ccc(NS(=O)(=O)N4CCC4)c3C#N)cc2c1=O
(b) CN(CCCn1cnc2ccc(Oc3c(F)ccc(NS(=O)(=O)N4CCCC4)c3C#N)cc2c1=O)C(=O)OC(C)(C)C
Input pair: a , b . Output: entry with lower pKd. Select an item and report its label.
b

(1) CC(C)(C)OC(=O)N1CCC(CCn2cnc3ccc(Nc4cccc(NS(=O)(=O)N5CC[C@@H](F)C5)c4C#N)cc3c2=O)CC1
(2) CN(CCNC(=O)CCCn1cnc2ccc(Nc3cccc(NS(=O)(=O)N4CC[C@@H](F)C4)c3C#N)cc2c1=O)C(=O)OC(C)(C)C
Dear colleague, could you let me know whether 1 or 2 has the lower recorded pKd? Thanks. Response format: the label of the selected entry.
1

(I) N#Cc1c(NS(=O)(=O)C2CCCC2)ccc(F)c1Oc1ccc2ncn(CCCc3ccccc3)c(=O)c2c1
(II) CCN(C)S(=O)(=O)Nc1ccc(F)c(Oc2ccc3ncn(CCCNC(=O)OC(C)(C)C)c(=O)c3c2)c1C#N
(III) CC(C)(C)OC(=O)NCCCn1cnc2ccc(Nc3cccc(NS(=O)(=O)N4CC[C@@H](F)C4)c3C#N)cc2c1=O
Would you mind ranking these molecules by ascending pKd? List each label, following the requested order.
I, II, III
(I: 7.30, II: 7.71, III: 8.14)
